Target: T1, PUF4 RNA-binding domain (Saccharomyces cerevisiae, UniProt P25339 537-888)
T1 sequence: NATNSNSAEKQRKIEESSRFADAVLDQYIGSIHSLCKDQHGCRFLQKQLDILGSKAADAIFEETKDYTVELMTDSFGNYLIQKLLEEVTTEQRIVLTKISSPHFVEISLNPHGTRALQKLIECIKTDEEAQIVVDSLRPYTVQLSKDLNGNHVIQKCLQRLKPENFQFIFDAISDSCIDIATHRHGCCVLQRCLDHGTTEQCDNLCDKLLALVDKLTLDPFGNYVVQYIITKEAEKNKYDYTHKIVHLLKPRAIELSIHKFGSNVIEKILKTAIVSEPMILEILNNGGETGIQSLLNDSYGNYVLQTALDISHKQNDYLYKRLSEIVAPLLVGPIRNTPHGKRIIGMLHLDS
Assay: Mg; RNA-MaP; 20 mM Na-HEPES pH 7.4, 30 mM KOAc, 0.75 mM MgCl2, 0.1% Tween-20, 5% glycerol, 0.1 mg/mL BSA, 2 mM DTT; 25 C; 0.0125-409.6 nM protein
Details: tags: N-His6-TEV cleaved; C-SNAP kept, Cy3B-labelled; label: tethered on chip by stalled RNA polymerase
pKd: −log10 of the molar value.
In this scheme, each record receives a class according to its pKd; the ranges are c1: < 6; c2: ≥ 6 and < 8; c3: ≥ 8

| binder | label-class |
| --- | --- |
| UCUCUUAAUAUAUAUACUUCUCUU (ssRNA) [Id_ii_S1_P3E.3_K3.2_C3.2_[C-2A]_[T-1A]_H3.2_A3.1_F3.1_T3.2_[T9C]_[A10T]] | c2 |
| Ic_S2_P5E.1_K5.1_C5.1_H5.1_A5.1_[T5C]_F5.1_[T9A]_[A10T]_T5.1 (ssRNA) RNA: UUUGAUUAAUAUGAUAUCGUUCUUUCUUGUACUAUAUUUCUUUCUCGAUAUCAUAUUAAUCUUU | c3 |
| ACAAACUAUAUAUAUUACGACAAAC (ssRNA) [Id_ii_S3_P4E.3_K4.2_C4.2_[C-2T]_[T-1A]_H4.2_A4.1_F4.1_T4.2_[G10C]_[T11G]] | c2 |
| UCUCUUGGUAUUAUUCUCUCUU (ssRNA) [Ib_S1_P5E.1_K5.1_C5.1_H5.1_[T1G]_A5.1_F5.1_[A10C]_T5.1] | c1 |
| UCUCUUUGUAGCAACCUCUCUU (ssRNA) [Ic_S1_P5E.1_K5.1_C5.1_H5.1_A5.1_[T5G]_[T6C]_F5.1_[T8A]_[T9C]_[A10C]_T5.1] | c1 |
| UCUCUUUGUAUUUUAAUCUCUU (ssRNA) [Ib_S1_P5E.1_K5.1_C5.1_H5.1_A5.1_[A7T]_F5.1_[T9A]_T5.1] | c3 |
| UCUCUUUGUAUCAAUUUCUCUU (ssRNA) [Ic_S1_P5E.1_K5.1_C5.1_H5.1_A5.1_[T6C]_F5.1_[T8A]_[A10T]_T5.1] | c2 |
| Ie_S4_P4E.1_K4.1_C4.1_H4.1_A4.1_[+7C]_F4.1_T4.1 (ssRNA) RNA: UUUGACAACUGAUCGUUCUUUCUUGUAUAUCUAUUCUUUCUCGAUCAGUUGUCUUU | c3 |
| ACAAACUAACACUAUUACGACAAAC (ssRNA) [Id_ii_S3_P4E.4_K4.3_C4.2_[C-2T]_[T-1A]_H4.3_A4.1_F4.1_T4.2_[G10C]_[T11G]] | c1 |
| Ib_S4_P3E.1_K3.1_C3.1_H3.1_[T1C]_A3.1_F3.1_[A8T]_T3.1 (ssRNA) RNA: UUUGACAACUGAUCGUUCUUUCUCGUAUAUUUUCUUUCUCGAUCAGUUGUCUUU | c2 |

FYI, the data here is from paper PMC9352680.
